- Measurement description: in vivo
- Parameters: species or system nude mice
- Reported conditions: nude, mouse, total radioactivity, Tumor-to-tissue ratio Bone
*1 amine or outer side, *2 acyl side, *3 side chain or, on linkers, in order; H or OH if unused. Where a SMILES comes first, the peptide text is derived from it. Side-chain parts run from the residue outwards. [ ]: non-standard residue; d: D form. The star is where a group is joined. DOTA = O=C(O)CN1CCN(CC(=O)O)CCN(CC(=O)*)CCN(CC(=O)O)CC1; NH(2-(imidazol-4-yl)ethyl) = c1ncc(CCN*)[nH]1; Suc = O=C(CCC(=O)[*:2])[*:1]

Molecule: NC(=O)[C@H](CCCCNC(=O)CNC(=O)CCC(=O)NCCc1cnc[nH]1)NC(=O)[C@@H](Cc1ccc(O)cc1)NC(=O)[C@H](CCCCNC(=O)CNC(=O)CCC(=O)NCCc1cnc[nH]1)NC(=O)[C@H](Cc1ccccc1)NC(=O)CN1CCN(CC(=O)O)CCN(CC(=O)O)CCN(CC(=O)O)CC1 [Ga-67-IMP 241, metal not drawn] ({DOTA}-FK([Gly-Suc-NH(2-(imidazol-4-yl)ethyl)])[dY]K([Gly-Suc-NH(2-(imidazol-4-yl)ethyl)])-NH2)
tissue to tissue ratio at 2 h: 24.6

* * *

- Measurement description: in vivo
- Design: species or system nude mice
- Reported conditions: nude, mouse, total radioactivity, Tumor-to-tissue ratio Stomach
*1 amine or outer side, *2 acyl side, *3 side chain or, on linkers, in order; H or OH if unused. Where a SMILES comes first, the peptide text is derived from it. Side-chain parts run from the residue outwards. [ ]: non-standard residue; d: D form. The star is where a group is joined. DOTA = O=C(O)CN1CCN(CC(=O)O)CCN(CC(=O)*)CCN(CC(=O)O)CC1; NH(2-(imidazol-4-yl)ethyl) = c1ncc(CCN*)[nH]1; Suc = O=C(CCC(=O)[*:2])[*:1]
Measured metric: tissue to tissue ratio at 4 h

Compound: NC(=O)[C@H](CCCCNC(=O)CNC(=O)CCC(=O)NCCc1cnc[nH]1)NC(=O)[C@@H](Cc1ccc(O)cc1)NC(=O)[C@H](CCCCNC(=O)CNC(=O)CCC(=O)NCCc1cnc[nH]1)NC(=O)[C@H](Cc1ccccc1)NC(=O)CN1CCN(CC(=O)O)CCN(CC(=O)O)CCN(CC(=O)O)CC1 [Ga-67-IMP 241, metal not drawn] ({DOTA}-FK([Gly-Suc-NH(2-(imidazol-4-yl)ethyl)])[dY]K([Gly-Suc-NH(2-(imidazol-4-yl)ethyl)])-NH2)
Measured metric: tissue to tissue ratio at 4 h
Recorded measurement: 56.9

* * *

- Measurement description: in vivo
- Parameters: species or system nude mice
- Reported conditions: nude, mouse, total radioactivity, Tumor-to-tissue ratio Sm. Intestine
*1 amine or outer side, *2 acyl side, *3 side chain or, on linkers, in order; H or OH if unused. Where a SMILES comes first, the peptide text is derived from it. Side-chain parts run from the residue outwards. [ ]: non-standard residue; d: D form. The star is where a group is joined. DOTA = O=C(O)CN1CCN(CC(=O)O)CCN(CC(=O)*)CCN(CC(=O)O)CC1; NH(2-(imidazol-4-yl)ethyl) = c1ncc(CCN*)[nH]1; Suc = O=C(CCC(=O)[*:2])[*:1]
Measured metric: tissue to tissue ratio at 2 h

Molecule: NC(=O)[C@H](CCCCNC(=O)CNC(=O)CCC(=O)NCCc1cnc[nH]1)NC(=O)[C@@H](Cc1ccc(O)cc1)NC(=O)[C@H](CCCCNC(=O)CNC(=O)CCC(=O)NCCc1cnc[nH]1)NC(=O)[C@H](Cc1ccccc1)NC(=O)CN1CCN(CC(=O)O)CCN(CC(=O)O)CCN(CC(=O)O)CC1 [Ga-67-IMP 241, metal not drawn] ({DOTA}-FK([Gly-Suc-NH(2-(imidazol-4-yl)ethyl)])[dY]K([Gly-Suc-NH(2-(imidazol-4-yl)ethyl)])-NH2)
Measured metric: tissue to tissue ratio at 2 h
Recorded measurement: 27.7
